Assay target: Mannose-6-phosphate isomerase (Homo sapiens) (UniProt P34949)
Sequence (P34949 whole entry, looked up): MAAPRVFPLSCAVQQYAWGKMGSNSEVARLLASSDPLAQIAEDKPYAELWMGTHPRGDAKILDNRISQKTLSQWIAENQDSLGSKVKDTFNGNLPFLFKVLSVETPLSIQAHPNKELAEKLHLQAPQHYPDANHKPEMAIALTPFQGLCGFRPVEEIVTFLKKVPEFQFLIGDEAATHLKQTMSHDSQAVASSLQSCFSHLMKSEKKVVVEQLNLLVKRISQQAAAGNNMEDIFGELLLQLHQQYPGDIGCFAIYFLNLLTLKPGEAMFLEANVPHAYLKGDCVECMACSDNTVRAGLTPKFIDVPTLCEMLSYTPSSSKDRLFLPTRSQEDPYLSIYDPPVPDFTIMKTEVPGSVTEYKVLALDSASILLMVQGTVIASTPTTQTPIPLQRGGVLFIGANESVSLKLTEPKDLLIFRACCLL
Run description: inhibitors of human PMI, primary screen, biochemical, fluorescence intensity, coupled assay (AID 1209);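 note: plate controls were DMSO vehicle for no effect and wells lacking substrate for full effect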
Measurement setup: purified PMI enzyme, at 20 µM, active compounds read high
Screen size: about 190,000 compounds; about 810 (0.43%) were called active. The entries come from a sample that favours actives as a whole.
# inhibition listing for each entry below
Enter your answer as a number in %; do not include the unit.

Give the measured inhibition of `Cc1nc([N+](=O)[O-])nn1C12CC3CC(CC(Br)(C3)C1)C2` . 75

Give the measured inhibition of `CN(CCO)C1=CC(=O)CC(C)(C)C1` . -12.5

Give the measured inhibition of `COc1ccccc1N1CCN(CCCCOc2cccc3ccccc23)CC1` . -10.7

Would you kindly look at the next entry?
Give the measured inhibition of `Cc1cc(NC(=O)C23CC4CC(C2)CC(n2cnc([N+](=O)[O-])n2)(C4)C3)no1` . 2.7
